Measurement target: T1, human CD40L, membrane-bound on cells (human, UniProt P29965 1-261)
T1 sequence: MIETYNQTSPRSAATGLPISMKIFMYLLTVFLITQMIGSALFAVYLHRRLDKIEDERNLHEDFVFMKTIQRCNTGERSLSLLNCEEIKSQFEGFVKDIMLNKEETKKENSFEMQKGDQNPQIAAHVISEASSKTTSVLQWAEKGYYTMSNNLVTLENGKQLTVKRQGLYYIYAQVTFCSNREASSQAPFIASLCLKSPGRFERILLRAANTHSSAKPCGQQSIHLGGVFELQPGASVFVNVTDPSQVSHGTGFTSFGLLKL
Test protocol: cell-based or functional assay
Binary call on T-B cell MLR EC50: yes from 0.2 nM upward, no beneath that.

Is reported T-B cell MLR EC50 greater than or equal to 0.2 nM here: 2h572-633 Fc (Fc fusion, not shown: a dimerising Fc or GST) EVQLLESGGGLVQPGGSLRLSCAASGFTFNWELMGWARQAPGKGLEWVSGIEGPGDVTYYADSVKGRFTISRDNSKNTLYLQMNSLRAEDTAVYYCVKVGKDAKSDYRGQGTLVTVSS
no

Is reported T-B cell MLR EC50 greater than or equal to 0.2 nM here: 2h719-2 Fc (Fc fusion, not shown: a dimerising Fc or GST) EVQLLESGGGLVQPGGSLRLSCAASGFTFKRYEMMWVRQAPGKGLEWVSSISSDGSFTYYADSVKGRFTISRDNSKNTLYLQMNSLRAEDTAVYYCAEPFTEFDYWGHGTLVTVSS
yes

Is reported T-B cell MLR EC50 greater than or equal to 0.2 nM here: 2h572-634 Fc (Fc fusion, not shown: a dimerising Fc or GST) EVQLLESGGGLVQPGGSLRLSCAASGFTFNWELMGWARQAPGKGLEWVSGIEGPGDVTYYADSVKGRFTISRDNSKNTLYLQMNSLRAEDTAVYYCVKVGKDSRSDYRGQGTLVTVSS
yes

Is reported T-B cell MLR EC50 greater than or equal to 0.2 nM here: 2h503-1 Fc (Fc fusion, not shown: a dimerising Fc or GST) DIQMTQSPSSLSASVGDRVTITCRASHHIQRYLSWYQQKPGKAPKLLILWGSQLQSGVPSRFSGSGSGTDFTLTISSLQPEDFATYYCGQWWAPPQTFGQGTKVEIKR
yes

Is reported T-B cell MLR EC50 greater than or equal to 0.2 nM here: 2h572-633-CT-Fc SP5 (Fc fusion, not shown: a dimerising Fc or GST) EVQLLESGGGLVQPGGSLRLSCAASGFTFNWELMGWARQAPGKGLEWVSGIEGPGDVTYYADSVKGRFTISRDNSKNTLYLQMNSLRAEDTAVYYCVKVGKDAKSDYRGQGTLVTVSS
no
